Biological target: SARM1 (Homo sapiens)
Construct: AviTag […]; made in house; host or cells: NRK1-HEK293T cells, transiently transfected; the clarified sonicated lysate was used without purification
Sequence (Q6SZW1 with tags, fused parts or gaps): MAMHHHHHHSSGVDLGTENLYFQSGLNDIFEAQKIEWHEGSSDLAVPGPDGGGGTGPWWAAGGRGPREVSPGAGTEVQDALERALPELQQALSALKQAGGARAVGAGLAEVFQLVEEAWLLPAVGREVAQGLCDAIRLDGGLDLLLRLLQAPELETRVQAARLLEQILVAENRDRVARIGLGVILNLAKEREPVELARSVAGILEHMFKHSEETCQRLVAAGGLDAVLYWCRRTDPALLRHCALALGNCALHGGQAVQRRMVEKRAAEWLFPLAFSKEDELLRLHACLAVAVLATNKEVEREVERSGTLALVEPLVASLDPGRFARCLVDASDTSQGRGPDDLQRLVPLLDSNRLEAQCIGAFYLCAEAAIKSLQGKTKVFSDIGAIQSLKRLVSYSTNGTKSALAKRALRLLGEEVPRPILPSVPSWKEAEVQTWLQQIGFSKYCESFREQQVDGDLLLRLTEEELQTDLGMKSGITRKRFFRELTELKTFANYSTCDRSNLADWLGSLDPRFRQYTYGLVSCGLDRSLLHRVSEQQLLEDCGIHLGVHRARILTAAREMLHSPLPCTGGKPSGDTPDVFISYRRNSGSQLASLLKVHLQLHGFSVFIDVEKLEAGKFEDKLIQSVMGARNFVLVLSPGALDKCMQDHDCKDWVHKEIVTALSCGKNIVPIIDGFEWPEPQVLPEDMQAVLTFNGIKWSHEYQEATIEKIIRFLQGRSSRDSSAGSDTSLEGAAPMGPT
Test: ARM-SAM-TIR SARM1 IC50 assay (NADase activity, NAD+ cleavage)
Format: biochemical
Conditions: ARM-SAM-TIR lysate 5 μg/mL from NRK1-HEK293T cells; 2 h pre-incubation with compound, 5 μM NAD+, 2 hr room temperature; NAD+ and ADPR by RapidFire mass spectrometry; read-out: SARM1 IC50
property measured: IC50

{"molecule": "CC1(O)CCCN(c2cc(C#N)c3cc(Br)ccc3n2)C1 (stereo not shown) [Example 97]", "IC50": "< 5 µM"}
{"molecule": "Cc1nccnc1C(=O)N[C@H]1CCCN(c2cc(C#N)c3cc(Br)ccc3n2)C1 [Example 134]", "IC50": "< 5 µM"}
{"molecule": "N#Cc1cc(N2CC[C@H](N)C(F)C2)nc2ccc(Br)cc12 (stereo partly shown) [Example 99]", "IC50": "< 5 µM"}

Report IC50 for each item below.
1. CC(=O)N[C@@]1(C)CCCN(c2cc(C#N)c3cc(Br)ccc3n2)C1 [Example 119]
2. N#Cc1cc(N2CCC[C@H](N3CCCC3=O)C2)nc2ccc(Br)cc12 [Example 109]
3. CS(=O)(=O)C1CCCN(c2cc(C#N)c3cc(Cl)ccc3n2)C1 (stereo not shown) [Example 59]
4. CC(O)c1ccc2nc(N3[C@H](C)CCC[C@@H]3C)cc(C#N)c2c1 (stereo partly shown) [Example 147]
5. N#Cc1cc(N2CCC[C@H](C(=O)NCC3CC3)C2)nc2ccc(Br)cc12 [Example 103]

Output:
< 5 µM
< 5 µM
< 5 µM
< 5 µM
< 5 µM

Report IC50 for each item below.
1. Cc1cnc(CNc2cc(C#N)c3cc(Cl)ccc3n2)o1 [Example 28]
2. N#Cc1c(Cl)c(N2CC[C@@H](O)C2)nc2ccc(Cl)cc12 [Example 90]
3. N#Cc1cc(N2CCCC[C@H]2CO)nc2ccc(Cl)cc12 [Example 95]
4. OCCNC1CCN(c2ccc3cc(Cl)ccc3n2)CC1 [Example 2]
5. N#Cc1cc(N2CCCCC2)nc2ccc(Cl)cc12 [Example 4]

Output:
1. > 30 µM
2. < 5 µM
3. < 5 µM
4. > 30 µM
5. < 5 µM
